System: SCC-4
assay: Antiproliferative activity against human SCC-4 cells assessed as inhibition of cell growth incubated for 24 hrs by MTS assay
Format: functional, cell-based
reportedConditions: SCC-4, 24 h
The entries below come with measured IC50 values attached.
# value in nM; strip the unit string

# compound, measurementType, reportedResult
measured = [
    ("Oc1cc2c(cc1O)C(c1ccccc1)N(C(=S)NCCc1ccc(Cl)cc1)CC2 (stereo not drawn)", "IC50", 1000),
    ("Oc1cc2c(cc1O)CN(C(=S)NCCc1ccc(Cl)cc1)CC2", "IC50", 2500),
]

Proceeding to the next compound to report its IC50.
Req: Give SCC-4 IC50 for the following compound: Oc1cc2c(cc1O)C(c1ccccc1)N(C(=S)NCc1ccccc1)CC2 (stereo not drawn)
Resp: 20000
